Entry source: patent US10214533B2

In this section we review reported Exposure (% rPPB), bound drug fraction to the plasma protein values for a set of compounds.
Tested on: plasma protein
Assay: Determination of plasma protein binding (rapid equilibrium dialysis)
Type: in vitro ADME
Details: 4 hours at 37° C.
Method: The determination of plasma protein binding (PPB) of a compound is enabled by equilibrium dialysis, an accepted and standard method for reliable estimation of the non-bound drug fraction in plasma. […] After 4 hours incubation at 37° C. under shaking, an aliquot is removed from each chamber and analyzed by a LC-MS/MS procedure enables the determination of both free and bound drug. […]
QUANTITY NAME: Exposure (% rPPB), bound drug fraction to the plasma protein (%)

COMPOUND: Cc1nsc(-c2nnc3n2CCN(C(=O)c2ccc(F)c(Cl)c2)C3)n1 [Compound 4]
QUANTITATIVE READOUT: 52
--
COMPOUND: Cc1nsc(-c2nnc3n2CCN(C(=O)c2ccc(F)c(F)c2F)C3)n1 [Compound 7]
QUANTITATIVE READOUT: 25
--
COMPOUND: Cc1nsc(-c2nnc3n2CCN(C(=O)c2ccc(Cl)c(F)c2)C3)n1 [Compound 3]
QUANTITATIVE READOUT: 54
--
COMPOUND: Cc1nsc(-c2nnc3n2CCN(C(=O)c2ccc(Cl)cc2)C3)n1 [Compound 2]
QUANTITATIVE READOUT: 49
--
COMPOUND: Cc1nsc(-c2nnc3n2CCN(C(=O)c2cc(F)c(F)c(F)c2)C3)n1 [Compound 6]
QUANTITATIVE READOUT: 27
--
COMPOUND: Cc1nsc(-c2nnc3n2CCN(C(=O)c2ccc(F)c(F)c2)C3)n1 [Compound 5]
QUANTITATIVE READOUT: 28
